- System Tested: HLA DRB1*0401 (human)
- Experimental Protocol: competition with 125I probe peptide, purified HLA; crude peptide batch
Metric Name: pIC50
// pIC50 here means minus log10 of the molar concentration (mol/L)

Kindly note the recorded pIC50 for LQAIELQLTLETIYN (modifications not checked) [HPV16.E2.070 HTL epitope] , which is 7.43
